biological target: human CD33 L38A (human, UniProt P20138 18-364); assay: alanine scan, flow cytometry;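 further: HEK293-T cells transiently expressing single-residue alanine mutants of CD33 (alanine swapped to serine), antibody binding read by fluorescence in duplicate, background-subtracted, expressed relative to wild-type CD33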
Sequence (P20138 18-364 L38A limits assumed): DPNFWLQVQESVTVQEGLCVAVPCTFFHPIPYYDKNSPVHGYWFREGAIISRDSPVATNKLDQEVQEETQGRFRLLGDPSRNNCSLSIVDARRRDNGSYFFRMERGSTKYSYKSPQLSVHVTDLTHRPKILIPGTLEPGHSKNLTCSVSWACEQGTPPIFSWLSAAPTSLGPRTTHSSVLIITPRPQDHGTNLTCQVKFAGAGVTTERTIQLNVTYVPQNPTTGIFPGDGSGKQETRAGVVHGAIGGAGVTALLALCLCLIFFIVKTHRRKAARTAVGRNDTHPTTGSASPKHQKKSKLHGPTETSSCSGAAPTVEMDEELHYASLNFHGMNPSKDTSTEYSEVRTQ
Can you tell me Mean % WT Binding for the items I'm about to list?
Numbers only, in % WT.

{"binder": "Refmab #4 (antibody, V domains shown, Full-length format is human IgG1 Fc silent (PG-LALA); The alanine scan used IgG or Fab) VH: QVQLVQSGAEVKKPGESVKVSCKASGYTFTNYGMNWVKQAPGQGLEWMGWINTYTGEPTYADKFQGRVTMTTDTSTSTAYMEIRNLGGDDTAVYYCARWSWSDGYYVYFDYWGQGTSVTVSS VL: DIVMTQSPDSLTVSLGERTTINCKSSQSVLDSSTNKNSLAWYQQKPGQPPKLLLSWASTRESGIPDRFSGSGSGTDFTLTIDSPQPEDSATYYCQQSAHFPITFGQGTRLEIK", "numeric-value": 96.8}
{"binder": "Refmab #3 (antibody, V domains shown, Full-length format is human IgG1 Fc silent (PG-LALA); The alanine scan used IgG or Fab) VH: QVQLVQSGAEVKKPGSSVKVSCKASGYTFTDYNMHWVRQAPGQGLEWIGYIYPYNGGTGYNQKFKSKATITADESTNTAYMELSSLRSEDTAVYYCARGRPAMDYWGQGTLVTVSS VL: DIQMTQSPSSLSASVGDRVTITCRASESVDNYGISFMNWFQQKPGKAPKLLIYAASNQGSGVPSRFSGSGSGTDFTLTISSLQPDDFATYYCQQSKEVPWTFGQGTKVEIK", "numeric-value": 192}
{"binder": "Refmab #2 (antibody, V domains shown, Full-length format is human IgG1 Fc silent (PG-LALA); The alanine scan used IgG or Fab) VH: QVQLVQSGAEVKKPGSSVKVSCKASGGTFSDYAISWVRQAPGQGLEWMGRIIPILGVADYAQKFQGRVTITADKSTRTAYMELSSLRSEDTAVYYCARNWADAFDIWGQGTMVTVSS VL: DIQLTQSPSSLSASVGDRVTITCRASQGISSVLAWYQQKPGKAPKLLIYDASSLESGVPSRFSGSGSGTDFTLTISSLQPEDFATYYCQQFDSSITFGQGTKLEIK", "numeric-value": 112}

Lab note: next binder to report on.
Task: Read the entry Refmab #1 (antibody, V domains shown, Full-length format is human IgG1 (Absolute Antibody Ab00283-10.0); The alanine scan used IgG or Fab; also called hP67.6) VH: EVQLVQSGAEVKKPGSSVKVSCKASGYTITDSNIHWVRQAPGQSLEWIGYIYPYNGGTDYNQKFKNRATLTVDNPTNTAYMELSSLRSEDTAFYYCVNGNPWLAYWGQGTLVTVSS VL: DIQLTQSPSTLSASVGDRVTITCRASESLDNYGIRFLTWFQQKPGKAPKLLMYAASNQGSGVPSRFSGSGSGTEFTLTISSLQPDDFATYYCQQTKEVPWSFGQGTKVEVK and write its reported Mean % WT Binding.
Result: 94.8
